The measurements presented in this section are drawn from patent US4447434A.

# measuredTarget: muscarinic receptors (cerebral cortex)
# procedureSummary: Binding to muscarinic receptors, cerebral cortex (displacement of 3H-N-methylscopolamine)
# conditionSet: cerebral cortex homogenate 1:3000; 0.3 n molar 3H-NMS; 30° C, 45 min, pH 7.4; read-out: Receptor binding tests IC50, Cortex
IC50 reference
Answer with a number only, understood to be in nM.

CN1[C@@H]2CC[C@H]1C[C@@H](CC(=O)N1c3ccccc3NC(=O)c3ccccc31)C2 ... 15
CN1CCC(CC(=O)N2c3ccccc3C(=O)Nc3cccc(Cl)c32)CC1 ... 28

Pending compound:
For this compound ( CN1CC=C(C(=O)N2c3ccccc3NC(=O)c3ccccc32)CC1 ), measured IC50 is 30

* * *

# procedureSummary: Mydriasis (effect on the pupil size)
# conditionSet: rat, in vivo, iv; pupil size observed for 10 minutes; double blind
endpointName: ED50 at 10 min (mg/kg)
Your answer should be a plain number; it is taken to be in mg/kg.

Solved entries (count: 2):
CN1[C@@H]2CC[C@H]1C[C@@H](CC(=O)N1c3ccccc3NC(=O)c3ccccc31)C2 ... 0.054
CN1CCC(CC(=O)N2c3ccccc3C(=O)Nc3cccc(Cl)c32)CC1 ... 0.138

With those in mind, consider the next compound.
Please fill in: ED50 at 10 min reported for CN1CC=C(C(=O)N2c3ccccc3NC(=O)c3ccccc32)CC1 = 0.0366

* * *

# measuredTarget: muscarinic receptors (heart) (Rattus norvegicus, UniProt P10980)
# Construct: The whole heart was cut up with scissors; from tissue; host or cells: whole heart of male Sprague-Dawley rats, homogenate
# Sequence (P10980 whole entry): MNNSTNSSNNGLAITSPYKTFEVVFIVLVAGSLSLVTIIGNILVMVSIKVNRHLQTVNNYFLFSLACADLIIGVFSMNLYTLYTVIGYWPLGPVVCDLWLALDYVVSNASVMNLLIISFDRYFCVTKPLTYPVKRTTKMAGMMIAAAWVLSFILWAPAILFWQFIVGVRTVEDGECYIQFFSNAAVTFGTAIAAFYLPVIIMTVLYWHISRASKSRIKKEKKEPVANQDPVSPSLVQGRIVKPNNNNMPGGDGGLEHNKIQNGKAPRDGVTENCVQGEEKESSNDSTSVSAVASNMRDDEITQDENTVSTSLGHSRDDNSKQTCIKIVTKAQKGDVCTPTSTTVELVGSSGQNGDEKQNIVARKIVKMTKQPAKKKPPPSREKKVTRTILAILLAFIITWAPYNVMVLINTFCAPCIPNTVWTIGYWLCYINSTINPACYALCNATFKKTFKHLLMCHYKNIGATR
# procedureSummary: Binding to muscarinic receptors, whole heart (displacement of 3H-N-methylscopolamine)
# Design: species or system rat (male Sprague-Dawley)
# conditionSet: whole heart homogenate 1:250; 0.3 n molar 3H-NMS; 30° C, 45 min, pH 7.4; read-out: Receptor binding tests IC50, Heart
endpointName: pIC50
Recall that pIC50 is obtained by taking minus log10 of the concentration measured in molar.

# pIC50 (compound: CN1[C@@H]2CC[C@H]1C[C@@H](CC(=O)N1c3ccccc3NC(=O)c3ccccc31)C2 ) is 7.26

* * *

# measuredTarget: muscarinic receptors (heart) (Rattus norvegicus)
# Construct: The whole heart was cut up with scissors; from tissue; host or cells: whole heart of male Sprague-Dawley rats, homogenate
# procedureSummary: Binding to muscarinic receptors, whole heart (displacement of 3H-N-methylscopolamine)
# Parameters: species or system rat (male Sprague-Dawley)
Recorded pIC50, one value per entry.
pIC50 here: minus log base 10 of the concentration, concentration in moles per litre.

CN1CCC(CC(=O)N2c3ccccc3C(=O)Nc3cccc(Cl)c32)CC1 ... 6.70

Shifting focus to the compound that follows.
The compound CN1CC=C(C(=O)N2c3ccccc3NC(=O)c3ccccc32)CC1 showed pIC50 equal to 6.60
